Target: Norepinephrine transporter (Rattus norvegicus, UniProt Q9WTR4)
Sequence (Q9WTR4 whole entry): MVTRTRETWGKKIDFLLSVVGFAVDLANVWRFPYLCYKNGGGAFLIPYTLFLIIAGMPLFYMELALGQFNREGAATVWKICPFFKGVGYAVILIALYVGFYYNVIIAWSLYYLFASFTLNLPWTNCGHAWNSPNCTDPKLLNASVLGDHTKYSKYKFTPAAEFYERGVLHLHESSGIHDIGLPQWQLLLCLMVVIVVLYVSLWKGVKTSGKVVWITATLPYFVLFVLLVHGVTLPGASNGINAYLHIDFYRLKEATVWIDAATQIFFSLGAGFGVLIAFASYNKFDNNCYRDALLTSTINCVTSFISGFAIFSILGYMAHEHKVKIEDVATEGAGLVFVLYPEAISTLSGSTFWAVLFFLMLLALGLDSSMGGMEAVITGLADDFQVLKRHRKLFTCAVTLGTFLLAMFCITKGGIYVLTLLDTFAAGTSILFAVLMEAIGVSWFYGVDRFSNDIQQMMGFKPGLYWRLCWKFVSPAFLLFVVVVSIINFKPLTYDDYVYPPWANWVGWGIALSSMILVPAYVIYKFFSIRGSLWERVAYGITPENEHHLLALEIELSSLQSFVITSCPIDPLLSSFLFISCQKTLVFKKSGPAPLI
Assay: Ability to inhibit high affinity reuptake of [3H]-NE (Norepinephrine transporter) into nerve ending synaptosomes prepared from brain regions
pKi: −log10 of the molar value.
measurement.type: pKi

compound="COC(=O)C1C2CC3CCC1N3C/C2=C\\c1ccccc1 (stereo not given)" assay_value=7.28
compound="COC(=O)C1C2CC3CCC1N3C/C2=C\\c1cc(Cl)cc(Cl)c1 (stereo not given)" assay_value=5.39
compound="COC(=O)C1C2CC3CCC1N3C/C2=C\\c1cccc(Cl)c1Cl (stereo not given)" assay_value=5.92
compound="CCC(=O)C1C2CC3CCC1N3C/C2=C\\c1ccc(Cl)c(Cl)c1 (stereo not given)" assay_value=6.19
compound="CON(C)C(=O)C1C2CC3CCC1N3C/C2=C\\c1ccc(Cl)c(Cl)c1 (stereo not given)" assay_value=6.40
compound="O=C(OCC1C2CC3CCC1N3C/C2=C\\c1ccc2ccccc2c1)c1ccccc1 (stereo not given)" assay_value=5.49
compound="COC(=O)C1C2CC3CCC1N3C/C2=C\\c1ccc(/C=C2\\CN3C4CCC3C(C(=O)OC)C2C4)cc1 (stereo not given)" assay_value=4.48
compound="COC(=O)C1C2CC3CCC1N3C/C2=C\\c1cc2ccccc2c2ccccc12 (stereo not given)" assay_value=4.89
compound="CN(C)C(=O)C1C2CC3CCC1N3C/C2=C\\c1ccc(Cl)c(Cl)c1 (stereo not given)" assay_value=5.69
compound="COC(=O)C1C2CC3CCC1N3C/C2=C\\c1ccc(C)cc1 (stereo not given)" assay_value=6.84

----------
Below is a list of entries, each paired with its recorded log10(Ki) value.
Target: Sodium-dependent serotonin transporter (Rattus norvegicus, UniProt P31652)
Sequence (P31652 whole entry): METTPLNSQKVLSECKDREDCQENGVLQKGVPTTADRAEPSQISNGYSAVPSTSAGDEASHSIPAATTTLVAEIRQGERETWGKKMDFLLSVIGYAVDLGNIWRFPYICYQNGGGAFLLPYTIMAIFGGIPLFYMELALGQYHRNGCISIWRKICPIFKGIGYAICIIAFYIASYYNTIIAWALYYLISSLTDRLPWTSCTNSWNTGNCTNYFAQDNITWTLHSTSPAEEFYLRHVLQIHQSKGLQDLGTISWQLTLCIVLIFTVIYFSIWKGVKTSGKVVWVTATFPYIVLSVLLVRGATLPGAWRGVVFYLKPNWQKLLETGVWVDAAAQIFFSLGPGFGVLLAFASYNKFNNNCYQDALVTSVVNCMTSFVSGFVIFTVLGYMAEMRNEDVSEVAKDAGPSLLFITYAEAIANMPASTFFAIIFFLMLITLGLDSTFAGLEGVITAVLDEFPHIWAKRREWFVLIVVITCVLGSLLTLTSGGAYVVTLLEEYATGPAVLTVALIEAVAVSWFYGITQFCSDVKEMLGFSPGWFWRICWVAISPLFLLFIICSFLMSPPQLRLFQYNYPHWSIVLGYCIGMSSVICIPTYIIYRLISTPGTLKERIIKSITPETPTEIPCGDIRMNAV
Assay: Inhibition of high affinity re-uptake of [3H]5-HT (serotonin) into nerve ending synaptosomes
measurement.type: log10(Ki) (log10 of the value in µM)

molecule="COC(=O)C1C2CC3CCC1N3C/C2=C\\c1ccc(F)cc1 (stereo not drawn)" assay_value=-0.47
molecule="COC(=O)C1C2CC3CCC1N3C/C2=C\\c1ccc(/C=C2\\CN3C4CCC3C(C(=O)OC)C2C4)cc1 (stereo not drawn)" assay_value=0.00
molecule="COC(=O)C1C2CC3CCC1N3C/C2=C\\c1ccc(C(C)C)cc1 (stereo not drawn)" assay_value=-1.99
molecule="COC(=O)C1C2CC3CCC1N3C/C2=C\\c1ccc(C)cc1 (stereo not drawn)" assay_value=-1.82
molecule="Cc1ccc(/C=C2\\CN3C4CCC3C(COC(=O)c3ccccc3)C2C4)cc1Cl (stereo not drawn)" assay_value=-2.70
molecule="CC(=O)OCC1C2CC3CCC1N3C/C2=C\\c1ccc2ccccc2c1 (stereo not drawn)" assay_value=-2.36
molecule="COC(=O)C1C2CC3CCC1N3C/C2=C\\c1ccc(C(F)(F)F)cc1 (stereo not drawn)" assay_value=-1.90
molecule="CON(C)C(=O)C1C2CC3CCC1N3C/C2=C\\c1ccc(Cl)c(Cl)c1 (stereo not drawn)" assay_value=-1.51
molecule="COC(=O)C1C2CC3CCC1N3C/C2=C\\c1cc2ccccc2c2ccccc12 (stereo not drawn)" assay_value=-0.63
molecule="CCC(=O)C1C2CC3CCC1N3C/C2=C\\c1ccc(Cl)c(Cl)c1 (stereo not drawn)" assay_value=-2.66
molecule="O=C(Oc1ccccc1)C1C2CC3CCC1N3C/C2=C\\c1ccc(Cl)c(Cl)c1 (stereo not drawn)" assay_value=-1.32
molecule="CC(=O)OCC1C2CC3CCC1N3C/C2=C\\c1ccc(Cl)c(Cl)c1 (stereo not drawn)" assay_value=-2.80
molecule="O=C(OCC1C2CC3CCC1N3C/C2=C\\c1ccc(Cl)c(Cl)c1)c1ccc2ccccc2c1 (stereo not drawn)" assay_value=-2.03
molecule="COC(=O)C1C2CC3CCC1N3C/C2=C\\c1ccc(Br)cc1 (stereo not drawn)" assay_value=-1.96
molecule="Clc1ccc(/C=C2\\CN3C4CCC3C(/C=C\\c3ccccc3)C2C4)cc1Cl (stereo not drawn)" assay_value=-0.61
molecule="O=C(OCC1C2CC3CCC1N3C/C2=C\\c1ccc(Br)c(Cl)c1)c1ccccc1 (stereo not drawn)" assay_value=-2.49
molecule="COC(=O)C1C2CC3CCC1N3C/C2=C\\c1ccc(Cl)cc1 (stereo not drawn)" assay_value=-1.46
molecule="COC(=O)C1C2CC3CCC1N3C/C2=C\\c1ccc(OC)cc1 (stereo not drawn)" assay_value=-1.25
molecule="COC(=O)C1C2CC3CCC1N3C/C2=C\\c1ccc(C)c(C)c1 (stereo not drawn)" assay_value=-2.00
molecule="COC(=O)C1C2CC3CCC1N3C/C2=C\\c1ccc(Cl)c(Cl)c1 (stereo not drawn)" assay_value=-1.70
molecule="COC(=O)C1C2CC3CCC1N3C/C2=C\\c1cccc(Cl)c1Cl (stereo not drawn)" assay_value=-0.45
molecule="CNC(=O)C1C2CC3CCC1N3C/C2=C\\c1ccc(Cl)c(Cl)c1 (stereo not drawn)" assay_value=-1.53
molecule="COC(=O)C1C2CC3CCC1N3C/C2=C\\c1cccc2ccccc12 (stereo not drawn)" assay_value=-0.92
molecule="COC(=O)C1C2CC3CCC1N3C/C2=C\\c1ccc(C)c(Cl)c1 (stereo not drawn)" assay_value=-2.19
molecule="CC(C)OC(=O)C1C2CC3CCC1N3C/C2=C\\c1ccc(Cl)c(Cl)c1 (stereo not drawn)" assay_value=-1.07
molecule="COC(=O)C1C2CC3CCC1N3C/C2=C\\c1ccc2ccc3cccc4ccc1c2c34 (stereo not drawn)" assay_value=-0.07
molecule="O=C(OCC1C2CC3CCC1N3C/C2=C\\c1ccc(Br)cc1)c1ccccc1 (stereo not drawn)" assay_value=-2.40
molecule="CC(=O)OCC1C2CC3CCC1N3C/C2=C\\c1cccc(Cl)c1 (stereo not drawn)" assay_value=-1.03
molecule="COC(=O)C1C2CC3CCC1N3C/C2=C\\c1cccc(Cl)c1 (stereo not drawn)" assay_value=-1.27
molecule="O=C(OCC1C2CC3CCC1N3C/C2=C\\c1ccc(Cl)c(Cl)c1)c1ccccc1 (stereo not drawn)" assay_value=-2.51
molecule="COC(=O)C1C2CC3CCC1N3C/C2=C\\c1ccc(F)c(F)c1 (stereo not drawn)" assay_value=-1.00
molecule="COC(=O)C1C2CC3CCC1N3C/C2=C\\c1ccc(I)cc1Cl (stereo not drawn)" assay_value=-1.13
molecule="COC(=O)C1C2CC3CCC1N3C/C2=C\\c1ccccc1 (stereo not drawn)" assay_value=0.06
molecule="O=C(OCC1C2CC3CCC1N3C/C2=C\\c1cccc(Cl)c1)c1ccccc1 (stereo not drawn)" assay_value=-1.96
molecule="COC(=O)C1C2CC3CCC1N3C/C2=C\\c1ccc(Br)c(Cl)c1 (stereo not drawn)" assay_value=-2.64
molecule="Clc1ccc(/C=C2\\CN3C4CCC3C(COc3ccc(I)cc3)C2C4)cc1Cl (stereo not drawn)" assay_value=0.07
molecule="COC(=O)C1C2CC3CCC1N3C/C2=C\\c1ccc2ccccc2c1 (stereo not drawn)" assay_value=-1.68
molecule="COC(=O)C1C2CC3CCC1N3C/C2=C\\c1cc(Cl)cc(Cl)c1 (stereo not drawn)" assay_value=-0.36
molecule="CN(C)C(=O)C1C2CC3CCC1N3C/C2=C\\c1ccc(Cl)c(Cl)c1 (stereo not drawn)" assay_value=-1.54
molecule="O=C(OCC1C2CC3CCC1N3C/C2=C\\c1ccc2ccccc2c1)c1ccccc1 (stereo not drawn)" assay_value=-4.00
molecule="O=C(CCCCCCCCCC(=O)OCC1C2CC3CCC1N3C/C2=C\\c1ccc(Cl)c(Cl)c1)OCC1C2CC3CCC1N3C/C2=C\\c1ccc(Cl)c(Cl)c1 (stereo not drawn)" assay_value=-2.07
molecule="COC(=O)C1C2CC3CCC1N3C/C2=C\\c1ccc(I)c(Cl)c1 (stereo not drawn)" assay_value=-2.74
molecule="O=C(OCC1C2CC3CCC1N3C/C2=C\\c1ccc(Cl)c(Cl)c1)c1ccc(I)cc1 (stereo not drawn)" assay_value=-1.31

----------
Biological target: UniProtKB Q9WTR4
Assay: Ability to inhibit high affinity reuptake of [3H]-NE (Norepinephrine transporter) into nerve ending synaptosomes prepared from brain regions
measurement.type: Ki (nM)

compound="O=C(OCC1C2CC3CCC1N3C/C2=C\\c1ccc(Cl)c(Cl)c1)c1ccc(I)cc1 (stereo unspecified)" test_target="UniProtKB Q9WTR4" unit_text=nM assay_value=8590
compound="O=C(OCC1C2CC3CCC1N3C/C2=C\\c1ccc(Cl)c(Cl)c1)c1ccc2ccccc2c1 (stereo unspecified)" test_target="UniProtKB Q9WTR4" unit_text=nM assay_value=5950
compound="Clc1ccc(/C=C2\\CN3C4CCC3C(COc3ccc(I)cc3)C2C4)cc1Cl (stereo unspecified)" test_target="UniProtKB Q9WTR4" unit_text=nM assay_value=2510
compound="COC(=O)C1C2CC3CCC1N3C/C2=C\\c1ccc(F)c(F)c1 (stereo unspecified)" test_target="UniProtKB Q9WTR4" unit_text=nM assay_value=394
compound="COC(=O)C1C2CC3CCC1N3C/C2=C\\c1ccc(F)cc1 (stereo unspecified)" test_target="UniProtKB Q9WTR4" unit_text=nM assay_value=584
compound="COC(=O)C1C2CC3CCC1N3C/C2=C\\c1ccc(C(C)C)cc1 (stereo unspecified)" test_target="UniProtKB Q9WTR4" unit_text=nM assay_value=1110
compound="COC(=O)C1C2CC3CCC1N3C/C2=C\\c1ccc(C)c(Cl)c1 (stereo unspecified)" test_target="UniProtKB Q9WTR4" unit_text=nM assay_value=198
compound="COC(=O)C1C2CC3CCC1N3C/C2=C\\c1ccc(Cl)cc1 (stereo unspecified)" test_target="UniProtKB Q9WTR4" unit_text=nM assay_value=208
compound="COC(=O)C1C2CC3CCC1N3C/C2=C\\c1ccc2ccccc2c1 (stereo unspecified)" test_target="UniProtKB Q9WTR4" unit_text=nM assay_value=157
compound="CC(=O)OCC1C2CC3CCC1N3C/C2=C\\c1ccc(Cl)c(Cl)c1 (stereo unspecified)" test_target="UniProtKB Q9WTR4" unit_text=nM assay_value=638
compound="COC(=O)C1C2CC3CCC1N3C/C2=C\\c1ccc(C)c(C)c1 (stereo unspecified)" test_target="UniProtKB Q9WTR4" unit_text=nM assay_value=659
